Reported Selectivity m1/m3 values for the following compounds.
Target: human m3 muscarinic acetylcholine receptor expressed in CHO cells (Homo sapiens)
Construct: purchased Receptor Biology, Inc; host or cells: CHO cells
Sequence (P20309 whole entry): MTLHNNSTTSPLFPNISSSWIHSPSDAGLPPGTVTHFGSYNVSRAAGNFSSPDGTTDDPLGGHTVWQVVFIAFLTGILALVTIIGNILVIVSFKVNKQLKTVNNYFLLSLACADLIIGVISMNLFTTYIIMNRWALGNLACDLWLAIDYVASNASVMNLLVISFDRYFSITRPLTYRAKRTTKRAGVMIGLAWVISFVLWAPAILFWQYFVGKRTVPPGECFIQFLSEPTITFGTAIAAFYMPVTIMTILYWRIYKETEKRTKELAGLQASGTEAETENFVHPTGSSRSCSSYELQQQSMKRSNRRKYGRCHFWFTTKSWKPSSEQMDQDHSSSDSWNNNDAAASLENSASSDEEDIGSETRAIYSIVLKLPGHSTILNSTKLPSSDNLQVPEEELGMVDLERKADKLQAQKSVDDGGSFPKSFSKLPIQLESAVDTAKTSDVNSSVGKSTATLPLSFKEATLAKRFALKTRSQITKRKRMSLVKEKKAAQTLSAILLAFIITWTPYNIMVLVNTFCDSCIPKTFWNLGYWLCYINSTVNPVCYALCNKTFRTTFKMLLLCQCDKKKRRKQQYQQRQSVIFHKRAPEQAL
Assay: Inhibition of [3H]-N-methylscopolamine binding to muscarinic m3 receptor
Conditions: ratio of Ki m1 to Ki m3
Method: These tests were performed according to a modification of the method of Hargreaves, et al. (Br. J. Pharmacol. 107: 494-501, 1992). […] After adding a scintillator (Microscinti 0; Packard), the radioactivity of [^3H]-N-methylscopolamine binding to the filter was counted with a microplate scintillation counter (TopCount™; Packard). Non-specific receptor binding of [^3H]-N-methylscopolamine was measured by adding 1 μM N-methylscopolamine.

compound	Selectivity m1/m3 [times]
CC[N+]1(CC)CCC[C@H](CNC(=O)[C@H]2CCCN2C(=O)[C@@H]2C[C@@H](O)CN2C(=O)CC(c2ccc(Cl)cc2)(c2ccc(Cl)cc2)c2ccc(Cl)cc2)C1.[Cl-] [Example 144]	85
O=C(CCNC(=O)CNC(=O)CC(c1ccccc1)(c1ccccc1)c1ccccc1)NC[C@H]1CCCN(CC2CCCCC2)C1 [Example 12]	370
O=C(NC[C@H]1CCC[N+]2(CCCC2)C1)[C@H]1CCCN1C(=O)[C@@H]1C[C@@H](O)CN1C(=O)CC(c1ccccc1)(c1ccccc1)c1ccccc1.[Cl-] [Example 151]	130
CCCCCCC[N+]1(C)CCC[C@H](CNC(=O)CCNC(=O)CNC(=O)CC(c2ccccc2)(c2ccccc2)c2ccccc2)C1.[Br-] (stereo partly drawn) [Example 146]	80
CCCCCN1CCC[C@H](CNC(=O)CCNC(=O)CNC(=O)CC(c2ccccc2)(c2ccccc2)c2ccccc2)C1 [Example 6]	480
O=C(CCNC(=O)[C@H](Cc1c[nH]cn1)NC(=O)CC(c1ccccc1)(c1ccccc1)c1ccccc1)NC[C@H]1CCCN(CC2CCCCC2)C1 [Example 19]	360

----------
Target: human m5 muscarinic acetylcholine receptor expressed in CHO cells (Homo sapiens)
Sequence (P08912 1-532): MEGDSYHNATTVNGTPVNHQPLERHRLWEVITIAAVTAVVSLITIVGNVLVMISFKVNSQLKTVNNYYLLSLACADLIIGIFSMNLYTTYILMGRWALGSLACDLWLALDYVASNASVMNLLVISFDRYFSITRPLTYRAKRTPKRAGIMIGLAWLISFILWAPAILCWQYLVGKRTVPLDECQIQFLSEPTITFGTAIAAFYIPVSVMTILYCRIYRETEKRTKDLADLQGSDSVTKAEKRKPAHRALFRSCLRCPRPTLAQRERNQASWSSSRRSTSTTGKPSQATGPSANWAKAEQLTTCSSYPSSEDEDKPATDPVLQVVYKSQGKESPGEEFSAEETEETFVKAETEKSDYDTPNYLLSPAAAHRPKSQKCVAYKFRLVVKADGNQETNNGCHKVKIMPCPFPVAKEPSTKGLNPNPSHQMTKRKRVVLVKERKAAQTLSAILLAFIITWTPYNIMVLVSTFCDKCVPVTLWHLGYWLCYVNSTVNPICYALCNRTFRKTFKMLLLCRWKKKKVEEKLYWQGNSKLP
pKi: −log10 of the molar value.

compound	pKi
CC[N+]1(CC)CCC[C@H](CNC(=O)[C@H]2CCCN2C(=O)[C@@H]2C[C@@H](O)CN2C(=O)CC(c2ccc(Cl)cc2)(c2ccc(Cl)cc2)c2ccc(Cl)cc2)C1.[Cl-] [Example 144]	6.64
O=C(CCNC(=O)[C@H](Cc1c[nH]cn1)NC(=O)CC(c1ccccc1)(c1ccccc1)c1ccccc1)NC[C@H]1CCCN(CC2CCCCC2)C1 [Example 19]	7.72
CC[C@H](C)C[N+]1(CC)CCC[C@@H](CNC(=O)CCCCCNC(=O)CC(c2ccccc2)(c2ccccc2)c2ccccc2)C1.[Cl-] (stereo partly drawn) [Example 150]	6.07
